B1: Twister Ribozyme (parent)
chain: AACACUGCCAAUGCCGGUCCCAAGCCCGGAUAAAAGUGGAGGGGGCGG

Variants of: B1
EXPERIMENTAL PROTOCOL: self-cleavage, relative activity (ratio to wild type); higher = more cleavage; co-transcriptional
In this section we review reported self-cleavage values for a set of variants.
Give the value as a plain number.

A selection of reference data follows.
1. A1U G38U
0.0843
2. G36A G43C
0.152
3. U6G C46A
0.411
4. A11C A35U
0.942
5. G7C C46A
0.0371
6. G29C U37C
0.182
7. A11C U18C
0.154
8. A1U G44C
0.0624
9. U12A G42A
0.463
10. G28A A34C
0.175

Task: For the variant shown here, A11G C14A , give the reported self-cleavage.
Result: 0.941

Task: Name the recorded self-cleavage for A22U A35U .
Result: 0.659

Task: I am curious: what self-cleavage value has been reported for C8G G41U ?
Result: 0.129

Task: Looking for the measured self-cleavage of C20U A22G , can you help?
Result: 0.119
